Would you kindly list inhibition for each of these compounds?
test: drug combination toxicity in non-malignant astrocytes – cell-based, BGB or cisplatin IC20 combos, cytotoxicity control for chromothriptic childhood tumor combination screen (AID 1671460); settings: Human astrocytes, viability inhibition, drug combinations; at 0.5 µM; stronger effect = higher value;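 further: cells exposed to compounds for 96 hours before viability readout; 0% = vehicle and 100% = killing control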
Calls of active or inactive are those of the source. No stated cut-off is given here; in the data, active means inhibition above about 80%; inactive means the rest. Non-standard residues stand in square brackets, D forms with d. Residues, ends and D or L forms follow the SMILES beside them. Dolaproine = CO[C@@H]([C@@H]1CCCN1)[C@@H](C)C(=O)O; Dil = CC[C@H](C)[C@H](NC)[C@@H](CC(=O)O)OC; NMeV = CN[C@H](C(=O)O)C(C)C

Known results for compounds:
COMPOUND	READOUT LABEL	ASSAY VALUE
O=c1[nH]cnc2c1ncn2C1CCC(CO)O1 (configuration not stated)	inhibition	4.8% (inactive)
O=C1C(=Cc2cccnc2)C(=O)c2ccccc21	inhibition	5.07% (inactive)
C#CCC(CCCCCC)C(=O)O (configuration not stated)	inhibition	6.72% (inactive)

Hey, can you go through the list below and give me inhibition for every item?
1. CCC1(O)C(=O)OCc2c1cc1n(c2=O)Cc2cc3cc(O)ccc3nc2-1 (configuration not stated)
2. O=C1N=c2ccccc2=C1c1c(O)[nH]c2ccccc12
3. NC(=S)NN=Cc1ncccc1N
4. CC[C@H](C)[C@@H]([C@@H](CC(=O)N1CCC[C@H]1[C@H](OC)[C@@H](C)C(=O)N[C@@H](Cc1ccccc1)C(=O)O)OC)N(C)C(=O)[C@@H](NC(=O)[C@@H](NC)C(C)C)C(C)C (H-[NMeV]V[Dil][Dolaproine]F-OH)
5. CON=C1CN(c2nc3c(cc2F)c(=O)c(C(=O)O)cn3C2CC2)CC1CN (configuration not stated)
6. CC(C)(O)[C@H]1CC[C@@](C)(C2[C@@H](O)C[C@@]3(C)[C@@H]4C[C@H](O)C5C(C)(C)[C@@H](O)CCC56CC46CC[C@]23C)O1 (some centres not stated)
7. CC(C)OC(=O)[C@H](C)NP(=O)(OC[C@H]1O[C@@H](n2ccc(=O)[nH]c2=O)C(C)(F)[C@@H]1O)Oc1ccccc1 (some centres not stated)
8. O=c1ccn(C2CC(O)C(CO)O2)c(=O)[nH]1 (configuration not stated)

OUT:
["73.4% (inactive)", "-0.99% (inactive)", "13.8% (inactive)", "31.9% (inactive)", "0.97% (inactive)", "0.26% (inactive)", "9.43% (inactive)", "3.18% (inactive)"]

Note to self: inhibition recorded for CC1CN(c2c(F)c(N)c3c(=O)c(C(=O)O)cn(C4CC4)c3c2F)CC(C)N1 (configuration not stated) was -1.22% (inactive)

----------
test: viability loss with induced miR-34 in A549 – imaging, A549 dox-inducible miR-34, nuclei and caspase counts, primary screen (AID 1347080); conditions: A549 miR-34 inducible, Hoechst nuclei count, 48 h; measured here: relative caspase fold change +Dox/-Dox
Where a SMILES comes first, the peptide text is derived from it. The star is where a group is joined. Cbz = O=C(OCc1ccccc1)*; CH2F = FC*
READOUT LABEL: fold change
Give bare numbers.

Known results for molecules:
MOLECULE	fold change
Cc1c(CNC(=O)C(=O)c2c(-c3ccccc3)cc3ccccn23)cnn1C	2.08
CC1(C)S[C@@H]2[C@H](NC(=O)[C@@H](N)c3ccc(O)cc3)C(=O)N2[C@H]1C(=O)O	1.48
O=C(c1cccc(Cl)c1F)N1CCN(Cc2cccc(Nc3nccs3)n2)CC1	4.5
O=S(=O)(c1ccccc1)c1cnc2c(N3CCNCC3)cccc2c1	0.61
CCSC(N)=Nc1ccc(C(F)(F)F)cc1	0.833
CN1[C@@H]2CC(OC(=O)C(CO)c3ccccc3)C[C@H]1[C@@H]1O[C@H]12 (stereo partly specified)	0.844

Hey, can you go through the list below and give me fold change for every item?
1. C[C@]12CC[C@H]3c4ccc(OC(=O)c5ccccc5)cc4CC[C@H]3[C@@H]1CCC2O (stereo partly specified)
2. CCc1cc(CN2CCN(C)C(CCO)C2)on1 (stereo unspecified)
3. COc1ccc(OC)c2c1c(C)cc(=O)n2C
4. CCC(C)[C@H](NS(=O)(=O)c1cccc2ccccc12)C(=O)N[C@H](C=O)Cc1c[nH]c2ccccc12 (stereo partly specified)

OUT:
1. 0.673
2. 1.26
3. 0.693
4. 1.24

Hey, can you go through the list below and give me fold change for every item?
1. O=C(C=Cc1ccccc1)NC(NC(=S)Nc1ccc(Cl)cc1)C(Cl)(Cl)Cl (stereo unspecified)
2. CC1(C)CC(Nc2nccc(-c3cnn(-c4ccccc4)c3)n2)CC(C)(C)N1
3. C=CC[C@H](N)C(=O)O

OUT:
1. 0.524
2. 3.09
3. 0.719

Hey, can you go through the list below and give me fold change for every item?
1. O=c1cnn(C2OC(CO)C(O)C2O)c(=O)[nH]1 (stereo unspecified)
2. COC(=O)CC(NC(=O)C(C)NC(=O)C(NC(=O)OCc1ccccc1)C(C)C)C(=O)CF (stereo not drawn) (Cbz-Val-Ala-Asp(OMe)-CH2F; configuration not given here)
3. O=C(Nc1cccc(Cl)c1)c1ccccn1

OUT:
1: 0.641; 2: 0.758; 3: 0.991

Hey, can you go through the list below and give me fold change for every item?
1. O=C(Nc1c[nH]c2ccccc12)c1cc(-c2ccc(F)cc2)n[nH]1
2. O=C(NCC(c1ccccc1)c1ccccc1)Nc1nncs1
3. CCC(C(C)O)n1ncn(-c2ccc(N3CCN(c4ccc(OCC5CO[C@@](Cn6cncn6)(c6ccc(F)cc6F)C5)cc4)CC3)cc2)c1=O (stereo partly specified)

OUT:
1. 1.42
2. 1.57
3. 0.726

Hey, can you go through the list below and give me fold change for every item?
1. O=C(O)C1CN(CCCP(=O)(O)O)CCN1 (stereo unspecified)
2. CN1C2CC[C@H]1CC(OC(=O)C(O)c1ccccc1)C2 (stereo partly specified)

OUT:
1.52
1.44

Data provenance is PubChem BioAssay.
